- Test system: Pi-GT6a-Rluc replicon
- Experimental details: Replicon antiviral assay, luciferase-encoding GT6a replicon (Table 4)
- Format: cell-based, Hepatitis C virus genotype 6a
- Protocol conditions: Hepatitis C virus, GT6A, 72 h, read-out: GT6a EC50
The compounds listed here are annotated with their pEC50.
# pEC50: negative log10 of molar concentration; output just the value

C=C[C@@H]1C[C@]1(NC(=O)[C@@H]1C[C@@H]2CN1C(=O)[C@H](C(C)(C)C)NC(=O)O[C@@H]1C[C@H]1CCCCCc1nc3ccc(OC)cc3nc1O2)C(=O)NS(=O)(=O)C1CC1; 8.64

# pEC50 lookup, item CCc1cc(CC[C@]2(C3CCCC3)CC(O)=C(Cc3nc4nc(C)cc(C)n4n3)C(=O)O2)cc(CC)n1
5.45

---

- System: Pi-GT6a-Rluc replicon
- Experimental details: Replicon antiviral assay, luciferase-encoding GT6a replicon (Table 4)
- Type: cell-based, Hepatitis C virus genotype 6a
- Protocol conditions: Table 4
The molecules listed here are annotated with their GT6a/GT1b EC50 ratio.
// no unit string in output, number only

As a guide, the following entries are already answered.
COC(=O)N[C@H](C(=O)N1CC2(CC2)C[C@H]1c1nc(-c2ccc3c(c2)C(F)(F)c2cc(-c4ccc5cc([C@@H]6[C@H]7CC[C@H](C7)N6C(=O)[C@@H](NC(=O)OC)C(C)C)[nH]c5c4)ccc2-3)c[nH]1)C(C)C; 113
CC(C)OC(=O)[C@H](C)N[P@](=O)(OC[C@H]1O[C@@H](n2ccc(=O)[nH]c2=O)[C@](C)(F)[C@@H]1O)Oc1ccccc1; 0.4
CC(C)(C)NC(=O)N[C@H](C(=O)N1C[C@H]2[C@@H]([C@H]1C(=O)NC(CC1CCC1)C(=O)C(N)=O)C2(C)C)C(C)(C)C (some centres unmarked); 0.9
CNC(=O)c1c(-c2ccc(F)cc2)oc2cc(N(CCO)S(C)(=O)=O)c(C3CC3)cc12; 1.0
C=C[C@@H]1C[C@]1(NC(=O)[C@@H]1C[C@@H]2CN1C(=O)[C@H](C(C)(C)C)NC(=O)O[C@@H]1C[C@H]1CCCCCc1nc3ccc(OC)cc3nc1O2)C(=O)NS(=O)(=O)C1CC1; 3.1

Query the reported GT6a/GT1b EC50 ratio for Pi-GT6a-Rluc replicon; item: CCC[C@H](NC(=O)[C@@H]1[C@H]2CCC[C@H]2CN1C(=O)[C@@H](NC(=O)[C@@H](NC(=O)c1cnccn1)C1CCCCC1)C(C)(C)C)C(=O)C(=O)NC1CC1
0.8

What do you have for COC(=O)N[C@H](C(=O)N1CCC[C@H]1c1nc(-c2ccc(-c3ccc(-c4c[nH]c([C@@H]5CCCN5C(=O)[C@@H](NC(=O)OC)C(C)C)n4)cc3)cc2)c[nH]1)C(C)C ?
1.8

---

- Tested on: Pi-GT1b-Rluc replicon
- Experimental details: Replicon antiviral assay, transient transfection, luciferase activity (GT1b)
- Type: cell-based, Hepatitis C virus genotype 1b
- Protocol conditions: Hepatitis C virus, Table 5, 1C cells, 384-well transient transfection, mean ± SD of at least two experiments, read-out: GT1bRluc EC50
Experimental endpoint: log10 of EC50 (log10 of the value in nM)
Base-10 log of EC50, unit nM.

CCc1cc(CC[C@]2(C3CCCC3)CC(O)=C(Cc3nc4nc(C)cc(C)n4n3)C(=O)O2)cc(CC)n1 [Filibuvir, filibuvir]; 2.05
CCC[C@H](NC(=O)[C@@H]1[C@H]2CCC[C@H]2CN1C(=O)[C@@H](NC(=O)[C@@H](NC(=O)c1cnccn1)C1CCCCC1)C(C)(C)C)C(=O)C(=O)NC1CC1 [Telaprevir]; 2.63
C=C[C@@H]1C[C@]1(NC(=O)[C@@H]1C[C@@H]2CN1C(=O)[C@H](C(C)(C)C)NC(=O)O[C@@H]1C[C@H]1CCCCCc1nc3ccc(OC)cc3nc1O2)C(=O)NS(=O)(=O)C1CC1 [MK-5172]; -0.13

# log10 of EC50 lookup, item CC(C)(C)NC(=O)N[C@H](C(=O)N1C[C@H]2[C@@H]([C@H]1C(=O)NC(CC1CCC1)C(=O)C(N)=O)C2(C)C)C(C)(C)C (stereo partly shown) [Boceprevir, boceprevir]
2.26

What do you have for CC(C)OC(=O)[C@H](C)N[P@](=O)(OC[C@H]1O[C@@H](n2ccc(=O)[nH]c2=O)[C@](C)(F)[C@@H]1O)Oc1ccccc1 [Sofosbuvir, sofosbuvir] ?
1.59

What do you have for COc1ccc2c(O[C@@H]3C[C@H]4C(=O)N[C@]5(C(=O)O)C[C@H]5/C=C\CCCCC[C@H](NC(=O)OC5CCCC5)C(=O)N4C3)cc(-c3csc(NC(C)C)n3)nc2c1 [BILN-2061] ?
0.00

What do you have for COC(=O)N[C@H](C(=O)N1CCC[C@H]1c1nc(-c2ccc(-c3ccc(-c4c[nH]c([C@@H]5CCCN5C(=O)[C@@H](NC(=O)OC)C(C)C)n4)cc3)cc2)c[nH]1)C(C)C [Daclatasvir, daclatasvir] ?
-1.47

---

- System: Pi-GT6a-Rluc replicon
- Experimental details: Replicon antiviral assay, luciferase-encoding GT6a replicon (Table 4)
- Assay type: cell-based, Hepatitis C virus genotype 6a
- Protocol conditions: Table 4
Experimental endpoint: GT6a/GT1b EC50 ratio
// no unit string in output, number only

As a guide, the following entries are already answered.
CCC1C[C@]1(NC(=O)[C@@H]1C[C@@H](Oc2cc(-c3csc(NC(C)C)n3)nc3c(Cl)c(OCCN4CCOCC4)ccc23)CN1C(=O)[C@@H](NC(=O)O[C@@H]1C[C@@H]2C[C@@H]2C1)C(C)(C)C)C(=O)O (stereo partly shown) [Compound A]; 8.7
CC1=CC[C@H](C(=O)N(c2cc(C#CC(C)(C)C)sc2C(=O)O)[C@H]2CC[C@](O)(CO[C@H]3CCOC3)CC2)CC1 [Compound C]; 251

# GT6a/GT1b EC50 ratio lookup, item Fc1ccccc1-c1nc2ccn(Cc3ccc(-c4ccc(C(F)(F)F)cc4C(F)(F)F)nn3)cc-2n1 [Tegobuvir, tegobuvir]
46

What do you have for CCc1cc(CC[C@]2(C3CCCC3)CC(O)=C(Cc3nc4nc(C)cc(C)n4n3)C(=O)O2)cc(CC)n1 [Filibuvir, filibuvir] ?
32
